target: Melanocortin receptor 3 (Mus musculus) (UniProt P33033); assay: Agonist activity at mouse MC3R expressed in HEK293 cells at 100 uM incubated for 2 hrs by AlphaScreen cAMP assay relative to untreated control; assay type: functional, cell-based
Sequence (P33033 whole entry): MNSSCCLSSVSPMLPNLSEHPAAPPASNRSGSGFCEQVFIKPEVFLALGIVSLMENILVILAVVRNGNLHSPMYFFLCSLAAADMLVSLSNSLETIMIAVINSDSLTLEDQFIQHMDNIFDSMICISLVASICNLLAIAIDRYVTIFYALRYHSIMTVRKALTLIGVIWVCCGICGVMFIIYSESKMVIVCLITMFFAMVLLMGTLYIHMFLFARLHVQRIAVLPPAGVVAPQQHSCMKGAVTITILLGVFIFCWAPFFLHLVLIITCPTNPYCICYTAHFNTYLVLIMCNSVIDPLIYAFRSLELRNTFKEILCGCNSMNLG
Square brackets hold non-standard residues; d marks the D form. Peptide text beside a SMILES is read from it. hPhe = N[C@@H](CCc1ccccc1)C(=O)O; Nle = CCCC[C@H](N)C(=O)O
Listing of recorded Activity by entry.

molecule	Activity
CCCC[C@@H]1NC(=O)[C@H](C)NC(=O)[C@H](CCCNC(=N)N)NC(=O)[C@H](Cc2ccccc2)NC(=O)[C@H](Cc2ccccc2)NC(=O)[C@H](CCCNC(=N)N)NC(=O)[C@@H]2CCCN2C(=O)[C@H]2CCCN2C1=O (cyclo(RFFRA[Nle][dP]P))	< 20%
C[C@@H]1NC(=O)[C@H](CCCNC(=N)N)NC(=O)[C@H](CCc2ccccc2)NC(=O)[C@H](Cc2ccccc2)NC(=O)[C@H](CCCNC(=N)N)NC(=O)[C@@H]2CCCN2C(=O)[C@H]2CCCN2C(=O)[C@H](Cc2ccccc2)NC1=O (cyclo(RF[hPhe]RAF[dP]P))	< 20%
